run-description: Stability of SH-11037 in mouse plasma
Assay type: in vitro ADME
cond: ICR, pH 7.4, SH-11037 1 µM, 37 °C, read-out: half-life (t1/2) of hydrolysis to SH-11008
quantity-kind: half-life at 1 µM
Include the unit after the number when you answer.

So, COc1ccc(CC2COc3cc(OC)c(OC)c(OC)c3C2=O)cc1OC(=O)[C@H](Cc1ccccc1)NC(=O)OC(C)(C)C (stereo partly shown) [SH-11037] ? Its half-life at 1 µM was 1.08 s

---

run-description: Mouse pharmacokinetics, single i.v. dose
Format: in vivo
cond: plasma, iv, single i.v. dose of SH-11008 3 mg/kg, male ICR mice, n = 3, read-out: t1/2 of SH-11008
quantity-kind: half-life (min)
Answers are plain numbers, in min.

// half-life lookup, compound = COc1ccc(CC2COc3cc(OC)c(OC)c(OC)c3C2=O)cc1O (stereo not shown) [SH-11008] , result: 3.5
